# Assay method text: amyloid nucleation score (Sup35N fusion, yeast selection) (log enrichment); library NNK2; higher = more nucleation; inactive = no reads after selection;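 note: zero at mode of non-aggregating sequences after 7 days selection at 30°C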
Measure name: amyloid nucleation score

INSERT INTO assay_data (substance, number) VALUES
  ('EGIILFRKDRELTGGRLTNV', -0.145),
  ('LMSIVVKVVDSTIIIKCVFS', -0.667),
  ('RPPSIYC', -0.477),
  ('NYFSTDMGFCLRDTYCRCEI', 4.68),
  ('VFPMVFTKGNANVCHI', 0.886),
  ('VRWFCSVISF', 2.39),
  ('FNCEGLVNS', -1.25),
  ('RSGSQENKVSECAQDTTFSV', 0.367),
  ('FMVILYLDSLSLPWNWIVFG', 0.098),
  ('NRFYIWRSDRNYTLVACRSK', -0.237),
  ('LLFLVCTSFNLDIQWNFALG', 4.76),
  ('YAPLSTDPYILVHCIRPRLA', -0.558),
  ('EKAGGPWLDHNRRQCQCEVA', 0.634),
  ('LHGGVLFKTSTMAGFR', -0.501),
  ('SLRMGFTKSVVARGAWRNWV', 4.1);

----------
# Assay method text: amyloid nucleation score (Sup35N fusion, yeast selection) (log enrichment); library NNK1; higher = more nucleation; inactive = no reads after selection
Short version: amyloid nucleation score at least 0.1 is t, less is f.

INSERT INTO measurements (substance, assigned_class) VALUES
  ('QLVKSVY', 'f'),
  ('LTFTLTDPDSHDANDKWPLH', 'f'),
  ('LSKYGVCVALLCIWMGHNWC', 't'),
  ('HRQGYVWYLLR', 't'),
  ('DGLKWVDWPWGHYGEMMVEM', 't'),
  ('FMALLQLAGVIWVSLTVLTP', 'f'),
  ('EGLARCQCLCLTRVIYVESA', 'f'),
  ('WYYYTVSSEGSNSAGTKLRG', 't'),
  ('DLCATDMGGYKRGEGPEGAL', 'f'),
  ('ICVSSGSVIIIVTYFAKCPA', 't'),
  ('IISMLFAFIGQSIIVQVVRC', 't'),
  ('IDWTVDKRSKLMYRGKGSVA', 'f'),
  ('CPMEKSGVELDV', 'f'),
  ('PFIWDDLAETVLNK', 't'),
  ('AKCAVASAIKVQQDDADGPD', 'f'),
  ('SHAFRITS', 't'),
  ('GVGGLWVEDSWRQRLDSEWA', 'f');

----------
# Assay method text: amyloid nucleation score (Sup35N fusion, yeast selection) (log enrichment); library NNK2; higher = more nucleation; inactive = no reads after selection
Catalogue of substances with associated amyloid nucleation score
Measure name: amyloid nucleation score

INSERT INTO results (substance, measure_name, number) VALUES
  ('LDFVQCILAVIQGSRDAAGA', 'amyloid nucleation score', 0.438),
  ('PSSYGWCMLFLVWDIQSTL', 'amyloid nucleation score', -0.829),
  ('CTFSVF', 'amyloid nucleation score', -1.71),
  ('NNGPSKT', 'amyloid nucleation score', 0.51),
  ('SVFYHLYSHWIFIVCTNTRR', 'amyloid nucleation score', -0.414),
  ('CDSVVKRIFGTFAGVHLHME', 'amyloid nucleation score', -0.228),
  ('AHKLCSFSVSKHHFWRLNGK', 'amyloid nucleation score', -0.023),
  ('IFVCAMV', 'amyloid nucleation score', 0.395),
  ('TMYFWLMSLVWLLSVSFRAW', 'amyloid nucleation score', 2.54),
  ('MSRKFMGVFCTSSRGSLPRG', 'amyloid nucleation score', 0.653),
  ('PLVLSFFRAIYSYYCNWKTC', 'amyloid nucleation score', -0.649),
  ('NILAMKLFVNKFHVIFDEFL', 'amyloid nucleation score', 0.097),
  ('GACVAKATF', 'amyloid nucleation score', 0.616),
  ('GRILNAEVFGVINASDNCAD', 'amyloid nucleation score', -0.412),
  ('RIDRFLFASGHEGYAVN', 'amyloid nucleation score', 4.51),
  ('LITTSMYLWSVHSFVLHMDD', 'amyloid nucleation score', 0.545),
  ('PICLPVNMLVFKSMNSN', 'amyloid nucleation score', 2.28),
  ('LSVSKSSIYLLLMRSRGHG', 'amyloid nucleation score', 0.175),
  ('NRDVVKKLPGPSSFVMT', 'amyloid nucleation score', -0.552),
  ('FSGIYESPMVLHMV', 'amyloid nucleation score', -1.97),
  ('GCDTRHSPLVSNALGLAIAS', 'amyloid nucleation score', -0.052),
  ('IAKMSFAINNDIYNCRFIST', 'amyloid nucleation score', 2.46),
  ('NVRIVYRPAGPFG', 'amyloid nucleation score', -0.347),
  ('MDMPVWG', 'amyloid nucleation score', 0.285),
  ('ASGKWHSCAGSGDYM', 'amyloid nucleation score', -0.453),
  ('IYCHPLRYVLFIVSYRVSSA', 'amyloid nucleation score', 0.259),
  ('YAGWVGI', 'amyloid nucleation score', -0.387),
  ('GGTPRSINVF', 'amyloid nucleation score', 0.201),
  ('SHCTLKNLV', 'amyloid nucleation score', -0.27),
  ('VYMSQWSKVFALFALNFKVN', 'amyloid nucleation score', 1.84),
  ('WDLLHYFDLF', 'amyloid nucleation score', 0.232),
  ('VNVGKCNRTVGIWLLWKVNA', 'amyloid nucleation score', 0.584),
  ('TIRRVRSALQQHM', 'amyloid nucleation score', 0.041),
  ('FNISSNVICDNFRDPLVESD', 'amyloid nucleation score', -1.87);
